test: A549 lung cancer cell viability effects, profiling panel, resazurin fluorescence, 24 h, PK04 Diversity Set (AID 1171); settings: higher = more signal, called active from +8 up or from −8 down; further: test concentration not given here
Entries annotated with measured z-score

{"columns": ["MOLECULE", "z-score"],
 "data": [
  ["COCCOC(=O)N1C(=O)[C@@]2(c3cc(C#CCCO)ccc31)[C@H](c1ccccc1OCCO)N1[C@H](c3ccccc3)[C@H](c3ccccc3)OC(=O)[C@H]1[C@@H]2C(=O)N1CCCCCCC1", 0.596],
  ["C=C(COC)C(=O)CC[C@H](OC(=O)c1cccnc1)c1ccc(CO)o1", -0.452],
  ["Cc1ccccc1C(O)C1C=CC2C(=O)N(c3ccccc3)C(=O)C2N1Nc1ccc([N+](=O)[O-])cc1 (centres undefined)", 0.306],
  ["C=C(COC)/C(=C/C[C@H](OC(C)=O)c1cccc(OCCO)c1)c1cnc2ccccc2c1", 0.127]
]}

---

experiment: basal 3T3-L1 adipocyte mitochondrial potential changes, profiling panel, cell-based, JC-1 fluorescence, 3T3-L1 adipocytes, 24 h, 100 nL compound (AID 1168); conditions: JC-1 mitochondrial fluorescence, higher = more signal, called active from +8 up or from −8 down; further: test concentration not given here

{"columns": ["MOLECULE", "z-score"],
 "data": [
  ["Cc1ccc(S[C@]2(C(=O)NC(C)C)CC(=O)N(Cc3ccccc3Cl)[C@@H]2c2ccc(CO)cc2)cc1", -0.397],
  ["COCCOC(=O)N1C(=O)[C@@]2(c3cc(C#CCC(C(=O)OC)C(=O)OC)ccc31)[C@H](C(=O)NC[C@H](O)c1ccccc1)[C@H]1C(=O)O[C@H](c3ccccc3)[C@H](c3ccccc3)N1[C@@H]2c1ccc(OCCO)cc1", 0.407],
  ["CC(C)c1ccc(NN2C(C(O)Cc3ccccc3)C=CC3C(=O)N(c4ccccc4)C(=O)C32)cc1 (stereo unspecified)", -0.864],
  ["COc1cc(NN2C(C(O)C3CCCCC3)C=CC3C(=O)N(C)C(=O)C32)cc(OC)c1OC (stereo unspecified)", -0.657],
  ["C=CCNC(=O)[C@H]1[C@@H]2C(=O)O[C@@H](c3ccccc3)[C@@H](c3ccccc3)N2[C@@H](c2ccc(O)cc2)[C@]12C(=O)N(C(=O)OCCOC)c1ccc(C#CCC(C(=O)OC)C(=O)OC)cc12", 0.448],
  ["NCCCCCNC(=O)[C@H]1C[C@H]2C(=O)N[C@@H](Cc3ccccc3)C(=O)N2[C@H]1c1ccc(O)cc1", -0.595]
]}

---

Property: z-score; scope: individual molecules
test: basal MM1S mitochondrial membrane potential changes, profiling panel, cell-based, JC-1 fluorescence, 24 h, 100 nL compound (AID 1170); conditions: higher = more signal; further: test concentration not given here

{"columns": ["MOLECULE", "z-score"],
 "data": [
  ["CCCNC(=O)[C@@]1(C)c2ccccc2C(=O)N(Cc2ccccc2)[C@H]1c1ccc(CO)cc1", 1.14],
  ["C=C[C@@H](OC)[C@H](OC(=O)Nc1ccc(OC)cc1)c1ccc(OC)c(O)c1", 0.454],
  ["C=CCN1C(=O)[C@]2(O[C@H](CCO)[C@@H]([Si](C)(C)c3ccc(OC)cc3)[C@@H]2C)c2cc(NC(=O)c3ccc(OC)cc3)ccc21", -2.2],
  ["CCC(CC)C(O)C1C=CC2C(=O)N(c3ccccc3)C(=O)C2N1Nc1ccc([N+](=O)[O-])cc1 (stereo not drawn)", -1.6],
  ["COc1ccc([Si](C)(C)[C@@H]2[C@@H](CC(=O)N3Cc4ccccc4C[C@H]3CO)O[C@]3(C(=O)N(c4ccccc4)c4ccccc43)[C@H]2C)cc1", -2.08],
  ["CCOC(=O)C[C@H]1[C@H](OC(=O)c2cc3ccccc3oc2=O)[C@@H](NC(=O)c2ccc3ccccc3c2)c2cc(OCCCO)ccc2N1C(=O)Cc1ccc(OC)cc1", 0.0571],
  ["O=C(CS)NCCCCCNC(=O)[C@@H]1C[C@@H]2C(=O)N[C@@H](Cc3ccccc3)C(=O)N2[C@@H]1c1cccc(OCCO)c1", -0.156],
  ["CN1C(=O)C2C=CC(C(O)c3ccc(I)cc3)N(Nc3ccccc3)C2C1=O (stereo not drawn)", 0.0807]
]}

---

system: Sonic hedgehog protein (Shh); experiment: small-molecule binders of Shh protein, primary screen, biochemical, small-molecule microarray, 635/667 nm fluorescence (AID 1151); settings: small-molecule microarray binding, 635 nm fluorescence; higher = more signal;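 further: Shh protein binding to compounds spotted on small-molecule microarray slides; score combines spot fluorescence intensity with signal-to-noise across triplicate slides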
Entries and their composite z-score
PARAMETER: composite z-score

{"columns": ["COMPOUND", "VALUE REPORTED"],
 "data": [
  ["C=C(/C(=C/C[C@@H](OC(=O)c1ccncc1)c1cccc(OCCO)c1)c1cnc2ccccc2c1)C(C)C", 2],
  ["C=C(COC)/C(=C/C[C@@H](OC(=O)c1ccncc1)c1ccccc1OCCO)c1cc(C(=O)OC)ccc1OC", 0.249],
  ["COc1cc(NN2C(C(O)c3ccc(I)cc3)C=CC3C(=O)N(c4ccccc4)C(=O)C32)cc(OC)c1OC (stereo not drawn)", 0.325],
  ["CC(C)C(=C=CC[C@@H](O)c1cccc(OCCO)c1)C[C@@H](O)c1ccccn1", 0.935],
  ["NC(=O)[C@H]1[C@@H]2C(=O)O[C@@H](c3ccccc3)[C@@H](c3ccccc3)N2[C@@H](c2ccc(O)cc2)[C@]12C(=O)Nc1ccc(C#CC3=CCCCC3)cc12", 1.19],
  ["COC(=O)[C@@]1(Cc2ccccc2CN=[N+]=[N-])N=C(c2ccc(OCCCO)cc2)O[C@H]1c1ccccc1", 0.381],
  ["COC(=O)C1=CC(CCCO)=CC(c2ccc(CN3CCCC3)cc2)N(Cc2cc3c(cc2Br)OCO3)C=C1C(=O)OC (stereo not drawn)", -0.249],
  ["CC(=O)NCCCC[C@@H]1NC(=O)[C@H]2C[C@@H](C(=O)NCCCCCNC(=O)CS)[C@@H](c3cccc(OCCO)c3)N2C1=O", 1.74]
]}

---

target: Follistatin (Homo sapiens) (UniProt P19883); experiment: follistatin binders on small-molecule microarrays, primary screen, biochemical, small-molecule microarray, 635/667 nm fluorescence (AID 1132); conditions: FST binding, 635 nm fluorescence, higher = more signal
Sequence (P19883 whole entry, looked up): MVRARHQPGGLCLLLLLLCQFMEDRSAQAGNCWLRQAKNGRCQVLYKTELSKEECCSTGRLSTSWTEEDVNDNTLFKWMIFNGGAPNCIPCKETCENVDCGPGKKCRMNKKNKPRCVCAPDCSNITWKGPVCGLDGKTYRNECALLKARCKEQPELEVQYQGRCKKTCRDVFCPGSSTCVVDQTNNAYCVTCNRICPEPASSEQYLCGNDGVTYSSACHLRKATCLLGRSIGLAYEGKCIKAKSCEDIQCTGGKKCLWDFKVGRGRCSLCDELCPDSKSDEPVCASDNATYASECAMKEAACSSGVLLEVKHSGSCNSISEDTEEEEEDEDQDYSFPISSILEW

{"columns": ["COMPOUND", "composite z-score"],
 "data": [
  ["COc1cc2c(cc1OC)CN(C(=O)[C@@H]1[C@H]3C(=O)O[C@H](c4ccccc4)[C@H](c4ccccc4)N3[C@H](c3ccc(O)cc3)[C@@]13C(=O)Nc1ccc(C#CCCO)cc13)CC2", 1.11],
  ["CC(C)C[C@@H]1NC(=O)[C@@]23C(=O)N[C@@H](Cc4ccccc4)C2[C@H](C)[C@@]2(C)O[C@H]2C3/C=C/C/C=C\\CNC(=O)[C@@H](C)NC1=O (stereo partly drawn)", 0.418],
  ["C=CCC(OC(C)=O)[C@@H]1[C@@H](N(Cc2cccc3ccccc23)C(=O)c2ccc(-c3ccccc3)cc2)c2cc(OCCCO)ccc2N1C(=O)c1ccc(-c2ccccc2)cc1 (stereo partly drawn)", 0.353]
]}

---

// values below are reported composite z-score
molecular target: E3 ubiquitin-protein ligase XIAP (Homo sapiens) (UniProt P98170); experiment: XIAP binders, primary screen, biophysical, small-molecule microarray, fluorescence 635 nm (AID 1181); settings: small-molecule microarray binding, higher = more signal;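 further: score merges 667 nm emission and signal to noise over triplicate slides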
Sequence (P98170 whole entry, looked up): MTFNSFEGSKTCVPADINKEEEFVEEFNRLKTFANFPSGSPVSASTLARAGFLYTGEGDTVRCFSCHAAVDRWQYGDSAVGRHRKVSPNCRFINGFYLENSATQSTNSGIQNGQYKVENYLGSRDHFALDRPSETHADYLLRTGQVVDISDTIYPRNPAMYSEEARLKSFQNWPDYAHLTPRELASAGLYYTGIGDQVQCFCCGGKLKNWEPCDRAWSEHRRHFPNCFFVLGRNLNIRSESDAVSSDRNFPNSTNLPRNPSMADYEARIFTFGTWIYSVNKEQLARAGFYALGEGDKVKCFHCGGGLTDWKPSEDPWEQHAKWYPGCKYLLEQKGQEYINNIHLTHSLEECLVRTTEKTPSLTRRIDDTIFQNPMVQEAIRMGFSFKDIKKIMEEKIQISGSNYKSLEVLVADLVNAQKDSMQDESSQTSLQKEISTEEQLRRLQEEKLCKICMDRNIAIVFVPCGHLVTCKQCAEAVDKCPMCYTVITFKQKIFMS

{"columns": ["MOLECULE", "EXPERIMENTAL SYSTEM", "composite z-score"],
 "data": [
  ["COCCCNC(=O)[C@@H]1c2ccccc2C(=O)N(C2Cc3ccccc3C2)[C@H]1c1ccc(CO)cc1", "E3 ubiquitin-protein ligase XIAP (Homo sapiens) (UniProt P98170)", -0.169],
  ["[N-]=[N+]=Nc1ccccc1C[C@]1(C(=O)NCc2ccccc2)COC(c2ccc(OCCCO)cc2)=N1", "E3 ubiquitin-protein ligase XIAP (Homo sapiens) (UniProt P98170)", 0.212],
  ["COC(=O)C(CC#Cc1ccc2c(c1)[C@]1(C(=O)N2)[C@H](c2ccc(OCCO)cc2)N2[C@H](c3ccccc3)[C@H](c3ccccc3)OC(=O)[C@H]2[C@@H]1C(=O)N1CCN(c2ncccn2)CC1)C(=O)OC", "E3 ubiquitin-protein ligase XIAP (Homo sapiens) (UniProt P98170)", 0.0651],
  ["C=CC[C@H](OC(=O)Nc1ccc(SC)cc1)c1ccc(OCCO)cc1", "E3 ubiquitin-protein ligase XIAP (Homo sapiens) (UniProt P98170)", 0.0264],
  ["CC(C)(C)OC(=O)CC[C@]1(C(=O)N2CCCCC2)COC(c2ccc(OCCCO)cc2)=N1", "E3 ubiquitin-protein ligase XIAP (Homo sapiens) (UniProt P98170)", 0.162],
  ["COCC1C2CC[C@H]3C(OCc4ccc(OC)cc4)OC[C@]4(C)[C@H]3C2=C(CN4C(=O)OC(C)(C)C)[C@H](C)C1COC (some centres undefined)", "E3 ubiquitin-protein ligase XIAP (Homo sapiens) (UniProt P98170)", 0.441],
  ["CN1C(=O)C2C=CC(C(O)c3cc(C(F)(F)F)cc(C(F)(F)F)c3)N(NC(=O)OC(C)(C)C)C2C1=O (centres undefined)", "E3 ubiquitin-protein ligase XIAP (Homo sapiens) (UniProt P98170)", 0.394],
  ["CCOC(=O)C1=CCC(c2ccccc2)N(S(=O)(=O)c2ccc([N+](=O)[O-])cc2)C1 (centres undefined)", "E3 ubiquitin-protein ligase XIAP (Homo sapiens) (UniProt P98170)", -0.113],
  ["NC(=O)NCC#Cc1ccc2c(c1)[C@]1(C(=O)N2)[C@H](C(=O)N2CCN(c3ncccn3)CC2)[C@H]2C(=O)O[C@H](c3ccccc3)[C@H](c3ccccc3)N2[C@@H]1c1ccc(OCCO)cc1", "E3 ubiquitin-protein ligase XIAP (Homo sapiens) (UniProt P98170)", -0.202],
  ["CC(C)C[C@@H]1NC(=O)CNC(=O)[C@@]23C(=O)N[C@@H](Cc4ccccc4)C2[C@H](C)[C@@]2(C)O[C@H]2C3/C=C/C/C=C\\CNC1=O (some centres undefined)", "E3 ubiquitin-protein ligase XIAP (Homo sapiens) (UniProt P98170)", -0.164],
  ["COC(=O)[C@@]1(Cc2ccc(OC)cc2)[C@H]2c3cc(C(=O)N4CCCC4)n(Cc4ccc(S(C)(=O)=O)cc4)c3C[C@H]2CN1C(=O)c1ccccc1", "E3 ubiquitin-protein ligase XIAP (Homo sapiens) (UniProt P98170)", 0.721],
  ["COc1ccc([Si](C)(C)[C@H]2[C@H](CCO)O[C@@]3(C(=O)N(Cc4ccc(N5C(=O)c6ccccc6Oc6ccccc65)cc4)c4ccccc43)[C@@H]2C)cc1", "E3 ubiquitin-protein ligase XIAP (Homo sapiens) (UniProt P98170)", -0.115],
  ["COCCOC(=O)N1C(=O)[C@@]2(c3ccccc31)[C@H](c1ccccc1OCCO)N1[C@H](c3ccccc3)[C@H](c3ccccc3)OC(=O)[C@H]1[C@@H]2C(N)=O", "E3 ubiquitin-protein ligase XIAP (Homo sapiens) (UniProt P98170)", -0.288],
  ["CC(C)[C@H]1NC(=O)[C@@]23C(=O)N[C@@H](Cc4ccccc4)C2[C@H](C)[C@@]2(C)O[C@H]2C3/C=C/CCC/C=C/CNC(=O)[C@H](Cc2ccccc2)NC1=O (some centres undefined)", "E3 ubiquitin-protein ligase XIAP (Homo sapiens) (UniProt P98170)", -0.039]
]}
